Data origin: patent US10183936B2

# Test system: AD38 cells
# Assay info: Viability of AD38 cells (Promega CellTiter-Glo) at the end of compound treatment
# Format: cell-based
# Test parameters: 10 μM compound, 6 days, luminescence normalized against DMSO control wells (controls being 100%)
Reported metric: AD38 Viability Normalized Result (CPAM/DMSO %) at 10 μM
The figure you give is taken to be in %; do not add the unit.

Take a look at these entries with their results.
[[record]]
molecule = "Nc1nnc(CCNC(=O)c2ccc3c(c2)NC(=O)c2ccccc2S3)s1 [Compound 1568]"
reported_result = 100

[[record]]
molecule = "O=C(NCc1ccc(F)cc1)c1ccc2c(c1)NC(=O)c1ccccc1S2 [Compound 1197]"
reported_result = 88

[[record]]
molecule = "O=C(NCCc1cnco1)c1cc2c(cc1F)Sc1ccccc1C(=O)N2 [Compound 1557]"
reported_result = 86

[[record]]
molecule = "CC(CNC(=O)c1ccc2c(c1)NC(=O)c1ccccc1S2)c1ccccc1 (stereo not shown) [Compound 1212]"
reported_result = 72

[[record]]
molecule = "Cl.O=C(NCC1CCNCC1)c1ccc2c(c1)NC(=O)c1ccccc1S2 [Compound 1609]"
reported_result = 99


Data request: Quick check: AD38 Viability Normalized Result (CPAM/DMSO %) at 10 μM of O=C1Nc2cc(S(=O)(=O)NCc3ccccc3)ccc2Sc2ccccc21 [Compound 1414] ?
Data returned: 89

---

# System: AD38 cells
# Assay info: Viability of AD38 cells (Promega CellTiter-Glo) at the end of compound treatment
# Format: cell-based
# Test parameters: 10 μM compound, 6 days, luminescence normalized against DMSO control wells (controls being 100%)
Define the label as y when AD38 Viability Normalized Result (CPAM/DMSO %) at 10 μM is strictly less than 90% and as n in all remaining cases.

Example cases with answers are listed next.
[[record]]
compound = "CCc1ccc(CNC(=O)c2ccc3c(c2)NC(=O)c2ccccc2S3)cc1 [Compound 1188]"
assigned_label = "y"

[[record]]
compound = "CC(=O)Nc1cccc(NC(=O)c2ccc3c(c2)NC(=O)c2ccccc2S3)c1 [Compound 1243]"
assigned_label = "n"

[[record]]
compound = "O=C1Nc2cc(CNCCc3ccccc3)ccc2Sc2ccccc21 [Compound 1357]"
assigned_label = "n"

[[record]]
compound = "CC(C)(C)c1ccc(CCNC(=O)c2ccc3c(c2)NC(=O)c2ccccc2S3)cc1 [Compound 1194]"
assigned_label = "y"

[[record]]
compound = "O=C(NCc1scnc1Cl)c1ccc2c(c1)NC(=O)c1ccccc1S2 [Compound 1632]"
assigned_label = "n"

[[record]]
compound = "O=C(NCCC1CCCCC1)c1ccc2c(c1)NC(=O)c1ccncc1S2 [Compound 1237]"
assigned_label = "y"

[[record]]
compound = "O=C(Nc1ccncc1)c1ccc2c(c1)NC(=O)c1ccc(F)cc1S2 [Compound 1366]"
assigned_label = "n"

[[record]]
compound = "CN1c2ccc(C(=O)NCCc3cncnc3)cc2NC(=O)c2ccccc21 [Compound 1548]"
assigned_label = "y"


Data request: Record NC(=O)c1ccc2c(c1)NC(=O)c1ccccc1S2 [Compound 1525] : is its AD38 Viability Normalized Result (CPAM/DMSO %) at 10 μM strictly below 90%?
Data returned: y

Data request: Record COc1ncc(CNC(=O)c2ccc3c(c2)NC(=O)c2ccccc2S3)s1 [Compound 1612] : is its AD38 Viability Normalized Result (CPAM/DMSO %) at 10 μM strictly below 90%?
Data returned: n

Data request: Record O=C(NCc1ccccn1)c1ccc2c(c1)NC(=O)c1ccccc1S2 [Compound 1210] : is its AD38 Viability Normalized Result (CPAM/DMSO %) at 10 μM strictly below 90%?
Data returned: n

Data request: Record COc1ccc2c(c1)Sc1ccc(C(=O)NCCC3CCCCC3)cc1NC2=O [Compound 1271] : is its AD38 Viability Normalized Result (CPAM/DMSO %) at 10 μM strictly below 90%?
Data returned: n

Data request: Record O=C(NCc1cccc(O)c1)c1ccc2c(c1)NC(=O)c1ccccc1S2 [Compound 1202] : is its AD38 Viability Normalized Result (CPAM/DMSO %) at 10 μM strictly below 90%?
Data returned: n

Data request: Record Cc1c(C(=O)NCc2cncs2)ccc2c1NC(=O)c1ccccc1S2 [Compound 1513] : is its AD38 Viability Normalized Result (CPAM/DMSO %) at 10 μM strictly below 90%?
Data returned: y

Data request: Record Cc1cc(C(=O)NCCC2CCCCC2)cc2c1Sc1ccccc1C(=O)N2 [Compound 1286] : is its AD38 Viability Normalized Result (CPAM/DMSO %) at 10 μM strictly below 90%?
Data returned: n

Data request: Record Cc1ccc2c(c1)Sc1ccc(C(=O)NCCC3CCCCC3)cc1NC2=O [Compound 1273] : is its AD38 Viability Normalized Result (CPAM/DMSO %) at 10 μM strictly below 90%?
Data returned: n

---

# System: AD38 cells
# Assay info: Viability of AD38 cells (Promega CellTiter-Glo) at the end of compound treatment
# Assay type: cell-based
# Test parameters: 10 μM compound, 6 days, luminescence normalized against DMSO control wells (controls being 100%)
AD38 Viability Normalized Result (CPAM/DMSO %) at 10 μM overview
The figure you give is taken to be in %; do not add the unit.

Data request: Identify the measured AD38 Viability Normalized Result (CPAM/DMSO %) at 10 μM of O=C(NCCC1CCCCC1)c1ccc2c(c1)NC(=O)c1ccc(Cl)cc1S2 [Compound 1250] for AD38 cells.
Data returned: 113

Data request: Identify the measured AD38 Viability Normalized Result (CPAM/DMSO %) at 10 μM of O=C(NCC12CC3CC(CC(C3)C1)C2)c1ccc2c(c1)NC(=O)c1ccccc1S2 [Compound 1189] for AD38 cells.
Data returned: 85

Data request: Identify the measured AD38 Viability Normalized Result (CPAM/DMSO %) at 10 μM of O=C(NCCc1cccc(C(F)(F)F)c1)c1ccc2c(c1)NC(=O)c1ccccc1S2 [Compound 1195] for AD38 cells.
Data returned: 48

---

# System: AD38 cells
# Assay info: Viability of AD38 cells (Promega CellTiter-Glo) at the end of compound treatment
# Type: cell-based
# Test parameters: 10 μM compound, 6 days, luminescence normalized against DMSO control wells (controls being 100%)
Reported metric: AD38 Viability Normalized Result (CPAM/DMSO %) at 10 μM
The figure you give is taken to be in %; do not add the unit.

Take a look at these entries with their results.
[[record]]
molecule = "COc1cccc(-c2cccc(NC(=O)c3ccc4c(c3)NC(=O)c3cc(F)ccc3S4)c2)c1 [Compound 1452]"
units = "%"
reported_result = 62

[[record]]
molecule = "O=C1Nc2cc(S(=O)(=O)Nc3ccc(Cl)cc3F)ccc2Sc2ccccc21 [Compound 1544]"
units = "%"
reported_result = 97

[[record]]
molecule = "Cc1ncc(CNC(=O)c2ccc3c(c2)NC(=O)c2ccccc2S3)s1 [Compound 1588]"
units = "%"
reported_result = 98

[[record]]
molecule = "Cc1ccccc1CCNC(=O)c1ccc2c(c1)NC(=O)c1ccccc1S2 [Compound 1158]"
units = "%"
reported_result = 120

[[record]]
molecule = "O=C(Nc1cncs1)c1ccc2c(c1)NC(=O)c1cc(F)ccc1S2 [Compound 1335]"
units = "%"
reported_result = 104

[[record]]
molecule = "CCOC(=O)C(NC(=O)c1ccc2c(c1)NC(=O)c1cc(F)ccc1S2)c1ccncc1 (centres unmarked) [Compound 1405]"
units = "%"
reported_result = 94

[[record]]
molecule = "O=C(Nc1ccc(Cl)cc1)c1ccc2c(c1)NC(=O)c1cc(F)ccc1S2 [Compound 1321]"
units = "%"
reported_result = 74


Data request: Quick check: AD38 Viability Normalized Result (CPAM/DMSO %) at 10 μM of O=C(NCC1CC1)c1ccc2c(c1)NC(=O)c1ccccc1S2 [Compound 1173] ?
Data returned: 105

---

# System: HBV viral production in AD38 cells
# Assay info: Viral load production in AD38 cells by quantitative PCR of the HBV core sequence in supernatant
# Assay type: cell-based
# Test parameters: Hepatitis B virus, 144 h; 10 μM compound, 6 days at 37° C., viral load in supernatant compared against DMSO control wells; read-out: AD38 Viral Load (CpAM/DMSO %) at 10 μM
Reported metric: activity at 10 µM (%)
The figure you give is taken to be in %; do not add the unit.

[[record]]
compound = "O=C(NCc1cncs1)c1ccc2c(c1)NC(=O)c1cc(F)ccc1S2"
reported_result = 1


Data request: Quick check: activity at 10 µM of `CN1c2ccc(C(=O)NCCc3cncs3)cc2NC(=O)c2ccccc21` ?
Data returned: 17

Data request: Quick check: activity at 10 µM of `COc1ccc(CNC(=O)c2ccc3c(c2)NC(=O)c2ccccc2S3)cc1` ?
Data returned: 1

---

# Test system: AD38 cells
# Assay info: Viability of AD38 cells (Promega CellTiter-Glo) at the end of compound treatment
# Format: cell-based
# Test parameters: 10 μM compound, 6 days, luminescence normalized against DMSO control wells (controls being 100%)
Reported metric: AD38 Viability Normalized Result (CPAM/DMSO %) at 10 μM
The figure you give is taken to be in %; do not add the unit.

[[record]]
compound = "O=C(NCCC1CCCO1)c1ccc2c(c1)NC(=O)c1ccccc1S2 (stereo not drawn) [Compound 1209]"
units = "%"
reported_result = 102

[[record]]
compound = "O=C(NCc1cnco1)c1ccc2c(c1)NC(=O)c1ccccc1S2 [Compound 1264]"
units = "%"
reported_result = 104

[[record]]
compound = "O=C(Nc1cccc(-c2ccccc2)c1)c1ccc2c(c1)NC(=O)c1ccccc1[S+]2[O-] (stereo not drawn) [Compound 1375]"
units = "%"
reported_result = 89

[[record]]
compound = "CCN1c2ccc(C(=O)NCc3cncnc3)cc2NC(=O)c2ccccc21 [Compound 1533]"
units = "%"
reported_result = 105

[[record]]
compound = "O=C(NCc1cnco1)c1ccc2c(c1)NC(=O)c1ccccc1[S+]2[O-] (stereo not drawn) [Compound 1381]"
units = "%"
reported_result = 93


Data request: Identify the measured AD38 Viability Normalized Result (CPAM/DMSO %) at 10 μM of O=C(NCc1cnco1)c1ccc2c(c1)NC(=O)c1ccc(F)cc1S2 [Compound 1349] for AD38 cells.
Data returned: 102

Data request: Identify the measured AD38 Viability Normalized Result (CPAM/DMSO %) at 10 μM of O=C(NCCc1cncs1)c1ccc2c(c1)NC(=O)c1ccccc1S2 [Compound 1247] for AD38 cells.
Data returned: 103

Data request: Identify the measured AD38 Viability Normalized Result (CPAM/DMSO %) at 10 μM of CCCCCCNC(=O)c1ccc2c(c1)NC(=O)c1ccccc1S2 [Compound 1151] for AD38 cells.
Data returned: 50

Data request: Identify the measured AD38 Viability Normalized Result (CPAM/DMSO %) at 10 μM of O=C(NCCc1ccccn1)c1cc2c(cc1F)Sc1ccccc1C(=O)N2 [Compound 1394] for AD38 cells.
Data returned: 94

Data request: Identify the measured AD38 Viability Normalized Result (CPAM/DMSO %) at 10 μM of O=C(NCCc1ccccn1)c1ccc2c(c1)NC(=O)c1cc(F)ccc1S2 [Compound 1310] for AD38 cells.
Data returned: 89
